# Tested on: OVCAR-8 (Ovarian Carcinoma)
# assayComment: combination Emax (second highest fraction inhibited in the dose matrix, 72 h); higher = more inhibition; extreme values may be limits of the assay
testReadout: combination Emax

Observe how each entry below is paired with its result.
compound	measuredTarget	combination Emax
Cc1c2c(nn1C)CSCc1cc(n(C)n1)CSc1cc(c3ccccc3c1)OCCCc1c(C(=O)O)n(C)c3c-2c(Cl)ccc13 [AZD5991] + C[C@@H]1COCCN1C2=NC(=NC(=C2)C3(CC3)[S@](=N)(=O)C)C4=C5C=CNC5=NC=C4 [AZD6738] (first compound max 1 µM, 7x7, partner max 10 µM)	OVCAR-8 (Ovarian Carcinoma)	0.783
COc1nnc2ccc(N3CCC(c4ccc(OCCN5CCN(C)C(=O)[C@H]5C)cc4)CC3)nn12 [AZD5153] + CN(CC[C@H](CSC1=CC=CC=C1)NC2=C(C=C(C=C2)S(=O)(=O)NC(=O)C3=CC=C(C=C3)N4CCC(CC4)[C@H](C5=CC=CC=C5C6=CC=C(C=C6)Cl)O)S(=O)(=O)C(F)(F)F)CCO [AZD4320] (first compound max 1 µM, 7x7, partner max 1 µM)	OVCAR-8 (Ovarian Carcinoma)	0.733

Let us move to another entry and its combination Emax.
Considering CN(CCO)CC[C@H](CSc1ccccc1)Nc1ccc(S(=O)(=O)NC(=O)c2ccc(N3CCC([C@@H](O)c4ccccc4-c4ccc(Cl)cc4)CC3)cc2)cc1S(=O)(=O)C(F)(F)F [AZD4320] + C[C@@H](Nc1cc(F)cc(F)c1)c1cc(C(=O)N(C)C)cc2c(=O)cc(N3CCOCC3)oc12 [AZD8186] (first compound max 1 µM, 7x7, partner max 3 µM) , its combination Emax with OVCAR-8 (Ovarian Carcinoma) was recorded as 0.57

----------
# Test system: NCI-H747 (Colorectal Carcinoma)
# assayComment: combination Emax (second highest fraction inhibited in the dose matrix, 72 h); higher = more inhibition; extreme values may be limits of the assay
testReadout: combination Emax

Observe how each entry below is paired with its result.
compound	measuredTarget	testReadout	readoutValue
CC(=O)Nc1cccc(-n2c(=O)n(C3CC3)c(=O)c3c(Nc4ccc(I)cc4F)n(C)c(=O)c(C)c32)c1 [Trametinib] + Cc1nc(-c2cn3c(n2)-c2ccc(-c4cnn(C(C)(C)C(N)=O)c4)cc2OCC3)n(C(C)C)n1 [Taselisib] (first compound max 1 µM, 7x7, partner max 10 µM)	NCI-H747 (Colorectal Carcinoma)	combination Emax	0.952
Cc1cc2ncnn2cc1Nc1ncc2c(n1)n(C1CCOCC1)c(=O)n2C [AZD7648] + O=C(c1cc(Cc2n[nH]c(=O)c3ccccc23)ccc1F)N1CCN(C(=O)C2CC2)CC1 [Olaparib] (first compound max 10 µM, 7x7, partner max 10 µM)	NCI-H747 (Colorectal Carcinoma)	combination Emax	0.241
Cc1cc2ncnn2cc1Nc1ncc2c(n1)n(C1CCOCC1)c(=O)n2C [AZD7648] + CCN(CCO)CCCOc1ccc2c(Nc3cc(CC(=O)Nc4cccc(F)c4)[nH]n3)ncnc2c1 [AZD2811] (first compound max 10 µM, 7x7, partner max 1 µM)	NCI-H747 (Colorectal Carcinoma)	combination Emax	0.306

Let us move to another entry and its combination Emax.
// Cc1c2c(nn1C)CSCc1cc(n(C)n1)CSc1cc(c3ccccc3c1)OCCCc1c(C(=O)O)n(C)c3c-2c(Cl)ccc13 [AZD5991] + Cn1cnc2c(F)c(Nc3ccc(Br)cc3Cl)c(C(=O)NOCCO)cc21 [Selumetinib] (first compound max 1 µM, 7x7, partner max 3 µM) : combination Emax value = 0.728
